TEST_SYSTEM: GSTO1–1 (Homo sapiens, UniProt P78417)
Sequence (P78417 whole entry): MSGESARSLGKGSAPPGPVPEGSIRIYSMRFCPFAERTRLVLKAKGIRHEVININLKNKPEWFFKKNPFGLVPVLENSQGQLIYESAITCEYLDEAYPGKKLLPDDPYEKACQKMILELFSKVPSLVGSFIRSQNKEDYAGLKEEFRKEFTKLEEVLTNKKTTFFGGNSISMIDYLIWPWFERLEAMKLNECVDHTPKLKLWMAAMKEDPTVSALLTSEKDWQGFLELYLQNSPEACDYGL
CONDITION_SET: GSTO1–1 binding assay

COMPOUND	GSTO1–1 binding activity (in words)
C=CC(=O)Nc1cnn(-c2ccccc2)c1 [Compound 5, N-(1-Phenyl-1H-pyrazol-4-yl)acrylamide]	inactive
C=CC(=O)Nc1nc(-c2ccccc2OC)cs1	inactive
C=CC(=O)Nc1cnn(Cc2ccccc2)c1 [Compound 6, N-(1-Benzyl-1H-pyrazol-4-yl)acrylamide]	inactive

---

Test system: HCT116
ASSAY_DETAILS: MTT cell viability assay, HCT116
Type: cell-based
CONDITION_SET: read-out: IC50-MTT HCT116; HCT116, 72 h; values of two independent experiments
MEASUREMENT_TYPE: pIC50
Keep in mind that pIC50 stands for -log10 of concentration in molar terms.

Prompt: # input molecule: C=CC(=O)Nc1nc(-c2ccc(O)cc2)cs1 ; wanted: its pIC50
Response: 5.15
